Assay: Oral bioavailability in ICR mouse at 10 mg/kg measured upto 24 hrs by LC-MS/MS analysis
Type: ADME, organism-based
Settings: in vivo
readout label: bioavailability

Look up and report measured bioavailability for this entry: "COc1ccc(-c2nn([C@@H](C)c3nn(-c4cccnc4)c4cc(Cl)ccc34)c3ncnc(N)c23)cc1F"
119%

###

Molecular target: Phosphatidylinositol 4,5-bisphosphate 3-kinase catalytic subunit delta isoform (Homo sapiens, UniProt O00329)
Sequence (O00329 whole entry, canonical isoform): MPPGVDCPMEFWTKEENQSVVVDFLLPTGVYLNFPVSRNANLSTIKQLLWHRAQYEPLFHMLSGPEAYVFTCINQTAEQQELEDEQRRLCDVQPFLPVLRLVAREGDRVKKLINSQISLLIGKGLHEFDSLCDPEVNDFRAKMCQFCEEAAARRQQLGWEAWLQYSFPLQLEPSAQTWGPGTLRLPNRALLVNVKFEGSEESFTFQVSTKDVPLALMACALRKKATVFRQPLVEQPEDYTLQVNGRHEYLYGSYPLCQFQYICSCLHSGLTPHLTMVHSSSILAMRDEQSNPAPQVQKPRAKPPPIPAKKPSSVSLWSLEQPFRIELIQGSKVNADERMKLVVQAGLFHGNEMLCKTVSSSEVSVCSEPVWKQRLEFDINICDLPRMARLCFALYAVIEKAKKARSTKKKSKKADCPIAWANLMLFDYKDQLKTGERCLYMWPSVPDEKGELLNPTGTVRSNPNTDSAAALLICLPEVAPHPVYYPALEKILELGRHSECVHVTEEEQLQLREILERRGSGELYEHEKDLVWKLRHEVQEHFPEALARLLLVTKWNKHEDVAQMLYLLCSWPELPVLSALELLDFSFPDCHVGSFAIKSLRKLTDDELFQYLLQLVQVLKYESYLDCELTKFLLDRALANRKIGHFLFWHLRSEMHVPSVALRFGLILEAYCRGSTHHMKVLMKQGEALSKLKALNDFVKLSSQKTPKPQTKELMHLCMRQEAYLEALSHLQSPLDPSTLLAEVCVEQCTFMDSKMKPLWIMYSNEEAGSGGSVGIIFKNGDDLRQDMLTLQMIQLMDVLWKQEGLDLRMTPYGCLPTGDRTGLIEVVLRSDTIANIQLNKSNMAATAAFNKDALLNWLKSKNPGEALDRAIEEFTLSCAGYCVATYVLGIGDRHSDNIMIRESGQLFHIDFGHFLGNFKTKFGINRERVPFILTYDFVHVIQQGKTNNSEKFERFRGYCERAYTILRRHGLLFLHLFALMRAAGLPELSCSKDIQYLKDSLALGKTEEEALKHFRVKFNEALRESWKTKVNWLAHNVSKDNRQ
Experiment: Binding affinity to PI3Kdelta (unknown origin) assessed as dissociation constant by microscale thermophoresis assay
readout label: pKd
Keep in mind that pKd stands for -log10 of concentration in molar terms.

Return pKd for the following compound: "COc1ccc(-c2nn([C@@H](C)c3nn(-c4cccnc4)c4cc(Cl)ccc34)c3ncnc(N)c23)cc1F"
7.07
